Please provide measured OD 650 nm (mean ± sd) for the entries that follow.
Target: TLR9 (Homo sapiens, UniProt Q9NR96)
Construct: expressed in transfected cells; host or cells: HEK293
Sequence (Q9NR96 26-1032): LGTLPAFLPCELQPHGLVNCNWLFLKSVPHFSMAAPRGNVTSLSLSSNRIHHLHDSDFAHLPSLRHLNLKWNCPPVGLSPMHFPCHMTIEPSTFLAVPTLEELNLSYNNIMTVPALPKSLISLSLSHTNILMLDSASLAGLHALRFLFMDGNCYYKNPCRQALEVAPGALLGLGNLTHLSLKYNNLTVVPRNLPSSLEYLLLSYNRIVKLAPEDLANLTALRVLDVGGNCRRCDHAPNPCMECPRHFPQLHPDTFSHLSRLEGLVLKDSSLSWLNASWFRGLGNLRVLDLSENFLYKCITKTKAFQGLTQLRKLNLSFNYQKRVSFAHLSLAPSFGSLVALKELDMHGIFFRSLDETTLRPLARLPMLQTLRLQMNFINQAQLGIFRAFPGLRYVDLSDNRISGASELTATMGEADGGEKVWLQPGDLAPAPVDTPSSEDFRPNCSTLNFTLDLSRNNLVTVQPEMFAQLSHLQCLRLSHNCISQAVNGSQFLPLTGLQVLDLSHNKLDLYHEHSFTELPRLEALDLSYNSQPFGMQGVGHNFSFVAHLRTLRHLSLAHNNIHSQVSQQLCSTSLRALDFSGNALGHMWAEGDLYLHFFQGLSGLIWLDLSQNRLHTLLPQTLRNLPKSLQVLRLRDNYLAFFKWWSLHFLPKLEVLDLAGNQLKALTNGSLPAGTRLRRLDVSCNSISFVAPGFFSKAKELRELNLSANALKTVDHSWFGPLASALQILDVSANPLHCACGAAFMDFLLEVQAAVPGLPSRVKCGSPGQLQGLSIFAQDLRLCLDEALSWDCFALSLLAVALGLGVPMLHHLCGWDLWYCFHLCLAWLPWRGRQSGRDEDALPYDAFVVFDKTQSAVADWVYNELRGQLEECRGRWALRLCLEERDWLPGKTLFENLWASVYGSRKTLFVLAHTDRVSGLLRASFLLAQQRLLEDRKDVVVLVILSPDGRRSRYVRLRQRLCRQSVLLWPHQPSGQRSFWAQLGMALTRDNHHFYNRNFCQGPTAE
Assay: TLR9 screening of (+)-morphinan library, SEAP reporter in HEK293 cells expressing TLR9
Type: cell-based
Conditions: 100 nM; activator ODN2006; control (no activator) 0.14, activator 1.42 OD
Numbers only; they are read as OD.

The value of OD 650 nm (mean ± sd) measured for the molecule COc1ccc2c3c1O[C@@H]1C(=O)CC[C@@H]4[C@H](C2)NCC[C@@]314 turned out to be 1.12

The value of OD 650 nm (mean ± sd) measured for the molecule COc1ccc2c3c1O[C@@H]1C(=O)CC[C@@H]4[C@H](C2)N(C(=O)C2CCC2)CC[C@@]314 turned out to be 1.45

The value of OD 650 nm (mean ± sd) measured for the molecule COC1=CCC2[C@@H]3Cc4ccc(OC)c5c4[C@]2(CCN3C)[C@@H]1O5 (some centres unmarked) turned out to be 1.15

The value of OD 650 nm (mean ± sd) measured for the molecule C=CCN1CC[C@@]23c4c5ccc(O)c4O[C@@H]2C(=O)CC[C@]3(OC)[C@@H]1C5 turned out to be 1.12

The value of OD 650 nm (mean ± sd) measured for the molecule COc1ccc2c3c1OC1C(OC(C)=O)CCC4C(C2)N(C)CC[C@]341 (some centres unmarked) turned out to be 1.15

The value of OD 650 nm (mean ± sd) measured for the molecule Oc1ccc2c3c1O[C@@H]1[C@H](O)CC[C@]4(O)[C@H](C2)N(CC2CCC2)CC[C@@]314 turned out to be 1.37

The value of OD 650 nm (mean ± sd) measured for the molecule O=C1CC[C@@H]2[C@@H]3Cc4ccc(O)c5c4[C@]2(CCN3)[C@@H]1O5 turned out to be 1.23

The value of OD 650 nm (mean ± sd) measured for the molecule COc1cc(Br)c2c(c1O)[C@@]13CCNC(C2)C1CCC(=O)C3 (some centres unmarked) turned out to be 1.18

The values you see were collected from patent US10363251B2.
